Reference source for all entries: PubChem BioAssay (NCI)

Test system: RXF 393 renal
experimentDescription: NCI-60 one-dose screen, 48 h (100 = growth as untreated, 0 = no growth, -100 = all killed)
conditionDescription: 10 µM unless noted
The panel holds about 83,000 compounds, 20% with a hit somewhere; the sample as a whole holds those more often.
Each record here notes measured growth.
I only need the number, in %, no unit after it.

Would you please look over these solved cases?
molecule | value
O=C(COc1ccc(NC(=O)Nc2ccc(Cl)c(Cl)c2)cc1)N=Nc1c(O)[nH]c2ccc([N+](=O)[O-])cc12 | 75.4
COc1ccc(-c2cc(C(=O)NCc3ccccc3)nn2-c2ccc(S(C)(=O)=O)cc2)cc1OC | 110
O=c1[nH]c2ccccc2cc1CSc1cccc(Nc2nccc(-c3ccc4ccccc4c3)n2)c1 | 81.3
CCN1C(=O)N(CC)C2NNC(Sc3c(C(=O)O)c4ccccc4n(C4CCCC4)c3=O)=NC21 (centres undefined) | 50.2
COc1cc(C2CC(c3ccc(S(=O)(=O)NCCNc4nc(Nc5ccc(F)cc5)nc(N(C)C)n4)cc3)=Nc3c(N)nc(N)nc3N2)cc(OC)c1OC (centres undefined) | 74

Reported growth for COc1ccc(NC(=O)c2sc3nc(C(C)C)ccc3c2N)cc1 was 89.2

// recorded growth for O=C1CCCc2cc(OCC(=O)N3CCCCC3)ccc2N1 : 110

Entry Cc1cc(=O)oc2cc(OCCOc3ccc(/C=C/C(=O)Nc4ccccc4N)cc3)ccc12 ; growth = 31

====

Documented growth across a set of compounds
Test system: SW-620 colon
experimentDescription: NCI-60 one-dose screen, 48 h (100 = growth as untreated, 0 = no growth, -100 = all killed)
conditionDescription: 10 µM unless noted
This is part of a sample that, as a whole, favours compounds with a hit. Of some 83,000 tested, about 20% had one in any assay. Active and inactive are the calls of the source. How the source made its calls: active means growth percent below 10; inactive means the rest.

The measured growth associated with CCCCNC(=S)Nc1ccc(OCc2nc3ccccc3[nH]2)cc1 reads 91.5% (inactive)

Memo: COc1ccc(-c2nc3cc(C)ccc3n2CC(=O)N=Nc2c(O)[nH]c3ccccc23)cc1 , reported growth: 6.89% (active)

Lookup result for Cc1cccc(-c2nc(Nc3ccc(C)c(S(N)(=O)=O)c3)c3ccccc3n2)c1 ; measured growth: 23.7% (inactive)

Lab note: measured growth of C/C(=N\N=C\c1cc([N+](=O)[O-])ccc1Cl)c1ccc2c(c1)Nc1ccccc1S2 was 50% (inactive)

Short answer for Cc1cc(N=C2NC(=O)CS2)n[nH]1 : growth was 103% (inactive)

Reported growth ( COc1cc2oc(-c3cccc(C(=O)Nc4cccc([N+](=O)[O-])c4)c3)cc(=O)c2c(OC)c1OC ) = 83.1% (inactive)

// field: growth; key: CC(=O)OC[C@@]1(C)C2CC[C@]3(C)C(CC=C4C5CC(C)(C)CC[C@]5(C(=O)Nc5ccc(C)cc5)CC[C@]43C)[C@@]2(C)C[C@@H](OC(C)=O)[C@@H]1OC(C)=O (stereo partly drawn) ; value = 40.5% (inactive)

Sure, the documented growth for CC1(C)CC[C@]2(C(=O)Nc3ccccc3)CC[C@]3(C)C(=CCC4[C@@]5(C)C[C@@H](O)[C@H](O)[C@@](C)(CO)C5CC[C@]43C)C2C1 (stereo partly drawn) is 72.2% (inactive)

====

Test system: ACHN renal
experimentDescription: NCI-60 one-dose screen, 48 h
conditionDescription: 10 µM unless noted
Procedure: Growth inhibition of the ACHN human tumor cell line is measured as a screen for anti-cancer activity. Cells are grown in 96 well plates and exposed to the test compound for 48 hours. Compounds are tested at a single concentration, which is 10^-5 M for most compounds. The reported endpoint is percent growth (GI% or GIPRCNT), where numbers from 0 - 100% represent growth inhibition, and numbers from -100% - 0 represent cell death. For example, a value of 40 represents 60% growth inhibition. […]
The panel holds about 83,000 compounds, 20% with a hit somewhere; the sample as a whole holds those more often. The source made the active and inactive calls. Rule for the calls: active = growth percent below 10; inactive = the rest.
Outcome (select one): active, inactive

molecule | systemUnderTest | categoryLabel
CCOc1ccc(C(=O)NC(=S)Nc2ccc(S(N)(=O)=O)cc2)cc1 | ACHN renal | inactive
N#Cc1ccc(/C=N/NC(=O)c2[nH]c3ccc(Br)cc3c2-c2ccccc2)o1 | ACHN renal | active
NS(=O)(=O)c1ccc(N=Nc2c(O)n(CC(=O)Nc3ccccc3Cl)c3ccccc23)cc1 | ACHN renal | active

Next molecule, please.
In: Recorded test outcome, item COc1cc(NC(=O)c2cccc(C3CCc4c(cc(OC)c(OC)c4OC)O3)c2)cc(OC)c1OC (stereo not drawn)
Out: inactive

====

System: PC-3 prostate
experimentDescription: NCI-60 one-dose screen, 48 h (100 = growth as untreated, 0 = no growth, -100 = all killed)
conditionDescription: 10 µM unless noted
The panel holds about 83,000 compounds, 20% with a hit somewhere; the sample as a whole holds those more often.
Collected growth values appear next to each entry.
// return numeric value only (unit: %, not printed)

compound | readoutUnits | growth
Cn1cc(-c2nc(N)nnc2-c2c[nH]c3ccc(Br)cc23)c2cccnc21 | % | 59.9
Cc1ccccc1[C@H]1C(C(=O)c2ccc(Cl)cc2)C2(N[C@@H]1c1ccccc1)C(=O)Nc1ccc(Br)cc12 (some centres not stated) | % | -4.58
Cc1ccc(-n2c(-c3cc4ccccc4nc3Cl)noc2=O)cc1 | % | 75.5

Sample C=CC(=O)Nc1ccc(C)c(Oc2ccc(Cl)cc2)c1 ; growth observed: 56

For this compound ( Cn1cc(-c2nnc(N)nc2-c2c[nH]c3ccc(Br)cc23)c2cc(Br)cnc21 ), measured growth is 38.5

growth reading for COc1ccc(C2=NN(C(C)=O)C(c3ccc(OCc4ccc(Cl)cc4)c(OC)c3)C2)cc1OC (configuration not stated) : 23.6

Noted for O=C(N=Nc1c(O)[nH]c2ccc([N+](=O)[O-])cc12)c1ccc2nc(-c3ccccc3)[nH]c2c1 : its growth reads 53.3

Value of growth reported for the compound O=C(COc1ccc(NC(=O)Nc2ccc(Cl)c(Cl)c2)cc1)N=Nc1c(O)[nH]c2ccccc12 is -44.6

Data point: CC1CCCCN1CCCNC(=O)N/C(N)=N/c1nc2ccccc2s1 (configuration not stated) ; growth = 31.6

The compound listed as Nc1nc(-c2ccccc2)c(N=Nc2ccc([N+](=O)[O-])cc2Cl)s1 has a reported growth of 77.7

The compound O=C(N/N=C/c1ccc(-c2ccc(O)cc2)o1)c1[nH]c2ccc(Br)cc2c1-c1ccccc1 showed growth equal to -6.14

// growth lookup, compound = CCOC(=O)C(N=Nc1ccc(S(=O)(=O)N=C(N)N)cc1)C(C)=O (configuration not stated) , result: 98.5

====

Test system: KM12 colon
experimentDescription: NCI-60 one-dose screen, 48 h
conditionDescription: 10 µM unless noted
About 83,000 compounds went through this panel and 20% of them were active in at least one assay; those are over-represented in the sample as a whole. The source made the active and inactive calls. How the source made its calls: active means growth percent below 10; inactive means the rest.
Give one outcome, nothing more. List: active, inactive

Look over these answered cases.
compound | categoryLabel
CN1CCc2c(sc3ncnc(N/N=C/c4ccc(Cl)cc4Cl)c23)C1 | inactive
O=c1[nH]c2ccc(Cl)cc2cc1CSc1nccc(-c2ccc(Cl)cc2)n1 | inactive
CCN(CC)C(=O)N/C(N)=N/c1nc2ccccc2s1 | inactive
O=C(/C=C/c1cccc(OCc2ccccc2)c1)c1nc2ccccc2[nH]1 | active
CCCSc1nc(NCCc2c[nH]c3ccccc23)c(C#N)c(-c2ccccc2)n1 | inactive

In: Recorded test call requested for C=C1CC[C@@H]2[C@]3(C)COC(c4cn[nH]c4-c4ccc(C)cc4)O[C@@H]3CC[C@@]2(C)[C@@H]1C/C=C1/C(=O)OCC1O (stereo not given in full)
Out: inactive

In: Would you mind telling me which call this test gave N#Cc1c(-c2ccccc2Cl)cc(-c2ccc3ccccc3c2)[nH]c1=O ?
Out: inactive

In: So what was the verdict on O=c1[nH]c2ccccc2cc1CSc1cccc(Nc2nccc(-c3ccc4ccccc4c3)n2)c1 in this test?
Out: inactive

In: Per the assay record, what outcome was assigned to CCCCCCCCc1ccc(C(=O)Nc2ccc(C)cc2C(=O)O)cc1C ?
Out: inactive

In: # lookup: test call for S=C(Nc1ccccc1)Nc1ccc(OCc2nc3ccccc3[nH]2)cc1
Out: active

====

System: NCI/ADR-RES ovarian
experimentDescription: NCI-60 one-dose screen, 48 h (100 = growth as untreated, 0 = no growth, -100 = all killed)
conditionDescription: 10 µM unless noted
About 83,000 compounds went through this panel and 20% of them were active in at least one assay; those are over-represented in the sample as a whole.
quantityName: growth (%)
The answer is to be given in %; state only the numeric part.

As a guide, the following entries are already answered.
molecule | growth [%]
COc1cc(/C=C2\C(=N)N=C(SCc3nc4ccccc4[nH]3)NC2=O)ccc1O | 99
O=[N+]([O-])c1ccc(/C=C/c2nc3ccccc3n3c(=S)[nH]nc23)cc1 | 85.2
C=C1CC[C@@H]2[C@]3(C)COC(c4cn[nH]c4-c4ccc(C)cc4)O[C@@H]3CC[C@@]2(C)[C@@H]1C/C=C1/C(=O)OCC1O (some centres undefined) | -41.8
NS(=O)(=O)c1ccc(-n2cc(-c3cccc(NC(=O)c4ccc(Cl)c(C(F)(F)F)c4)c3)nn2)cc1 | 78.2
Cn1cc(-c2nnc(N)nc2-c2c[nH]c3ccc(F)cc23)c2cccnc21 | 72.9
N#Cc1c(-c2ccc(Br)cc2)nc2n[nH]c(-c3ccc(Br)cc3)c2c1-c1ccc(C(F)(F)F)cc1 | 23.7
COc1ccc(Cc2nn(CC(=O)N/N=C/c3ccc(F)cc3)c(=O)c3c(C)noc23)cc1 | 38.4
N#Cc1c(-c2ccc(Br)cc2)nc2n[nH]c(-c3ccc(Br)cc3)c2c1-c1ccc(F)cc1 | 97.2
O=C1c2c(c3c4cc(F)ccc4oc3c3[nH]c4ccc(Br)cc4c23)C(=O)N1O | 30.7
COc1ccc(-c2ccc(SCC(=O)NCCc3ccc(S(N)(=O)=O)cc3)nn2)cc1 | 100

Given item N#Cc1c(-c2cccnc2)cc(-c2ccc3ccccc3c2)[nH]c1=O , the value recorded as its growth is 75.3

# growth of Cc1ccc(-c2nc(C#N)c(S(=O)(=O)N3CCN(S(=O)(=O)c4ccc(Cl)cc4)CC3)o2)cc1 = 91

Reported growth for Cn1cc(-c2cc3nc(-c4cn(C)c5ncc(Br)cc45)cc(N)n3n2)c2cc(Cl)ccc21 was -58.4

Recorded result, Clc1ccc(-c2ccc(OCCCN3CCN(c4ccncc4)CC3)cc2)cc1 , growth: 49.7

For CC1=C(C#N)C2=NNCC(c3ccccc3)=NN2C(c2ccccc2)=C1 the molecule record lists growth as 112

Lab note: COc1ccc2cc([C@H](C)C(=O)N/N=C/c3ccc(Br)cc3)ccc2c1 gave growth of 98.2

Record COc1ccc(NC(=O)c2sc3nc(C(C)C)ccc3c2N)cc1 , field growth: 59.6

// sample CSc1ccccc1NC(=O)c1ccc2nn(/C(C#N)=C/c3ccccn3)nc2c1 , its growth was 2.48

growth measured on C=CC[N+](C)(C)CCn1c2ccccc2c2nc3cc(C)c(C)cc3nc21 = 108

Given item C=C1CC[C@@H]2[C@]3(C)COC(c4cn[nH]c4-c4ccc(Br)cc4)O[C@@H]3CC[C@@]2(C)[C@@H]1C/C=C1/C(=O)OCC1O (some centres undefined) , the value recorded as its growth is -40

For reference, reported growth for COc1cc(NC(=O)c2cccc(C3CCc4c(cc(OC)c(OC)c4OC)O3)c2)cc(OC)c1OC (centres undefined) stands at 16.9

For record Cc1ccc(C(=O)CSc2nc3ccc(C)cc3c(=O)n2-c2ccc(F)cc2)cc1 the listed growth is 40.6

Looking up Nc1cccc(SCc2cc3ccccc3[nH]c2=O)c1 , I see its growth listed as 67.8

Form field growth, entry COc1ccc(-c2ccnc(SCc3cc4ccccc4[nH]c3=O)n2)cc1 : 26.9
